Where these numbers come from: patent US8470859B2

- Test system: isolated bladder muscle of BOO model rat
- TEST NAME: Effect of various drugs on α1 receptor stimulation-induced contraction of isolated bladder muscle of bladder outlet obstruction (BOO) model rat
- PARTICULARS: phenylephrine 3 μmol/L; concentration inhibiting the sustained, rhythmic contractile responses by 30%; cumulative treatment, 3 concentrations, 30 min intervals
MEASURED QUANTITY: Inhibitory effect on phenylephrine-induced contraction IC30 (stddev method) (µM)
One number for each entry, in µM.

Reference set (3 entries):
COMPOUND | TARGET SYSTEM | VALUE MEASURED
C[C@H](CN1CCN(c2cc(F)c(F)cc2F)CC1)N1C(=O)CC2(CCCC2)CC1=O [SNAP-8719] | isolated bladder muscle of BOO model rat | 0.18
CCOc1ccccc1OCCN[C@H](C)Cc1ccc(OC)c(S(N)(=O)=O)c1 [Tamsulosin, tamsulosin] | isolated bladder muscle of BOO model rat | 0.0094
COc1ccccc1N1CCN(CCN2C(=O)CC3(CCCC3)CC2=O)CC1 [BMY 7378] | isolated bladder muscle of BOO model rat | 0.089

Here is another compound to look at.
Entry COc1ccccc1N1CCN(CC(O)COc2cccc3ccccc23)CC1 (stereo not shown) [Naftopidil] ; Inhibitory effect on phenylephrine-induced contraction IC30 (stddev method) = 3.8

----------
Please provide measured inhibition at 1 µM for the entries that follow.
- TARGET SYSTEM: human adrenaline α1D receptor (Homo sapiens)
- Construct: expressed in transfected cells; membrane fraction used
- TEST NAME: Measurement of α1D receptor binding inhibitory activity ([3H]prazosin binding to membrane fraction of CHO-K1 cells expressing the receptor)
- PARTICULARS: compound at 1 μM; [3H] prazosin 2.5 nM; membrane fraction 20 μg/well; read-out: binding inhibitory rate (%) (α1D receptor binding inhibitory rate at 1 μM)
Where a name gives a salt, the structure may show the parent alone.
Answers are plain numbers, in %.

Reference set (3 entries):
COMPOUND | MEASURE UNIT | VALUE MEASURED
N#Cc1cc(Cl)cc(Cn2cc(Cl)cc(C(N)=O)c2=N)c1 [Example 182, hydrobromide] | % | 99.2
CS(=O)(=O)c1cc(Cl)ccc1Cn1cc(Cl)cc(C(N)=O)c1=N [Example 149, hydrobromide] | % | 96
N#Cc1ccc(F)c(Cn2cc(Cl)cc(C(N)=O)c2=N)c1 [Example 156, hydrobromide] | % | 91.8

# batch size: 3; output inhibition at 1 µM per entry
1. N=c1c(C(N)=O)cc(Cl)cn1CCc1ccccc1
2. N#Cc1cc(F)cc(Cn2cc(Cl)cc(C(N)=O)c2=N)c1 [Example 181, hydrobromide]
3. N=c1c(C(N)=O)cc(Cl)cn1Cc1cccc(Cl)c1

[81.8, 95.4, 99.1]

----------
- TARGET SYSTEM: human adrenaline α1D receptor (Homo sapiens)
- Construct: expressed in transfected cells; membrane fraction used
- Sequence (P25100 1-572): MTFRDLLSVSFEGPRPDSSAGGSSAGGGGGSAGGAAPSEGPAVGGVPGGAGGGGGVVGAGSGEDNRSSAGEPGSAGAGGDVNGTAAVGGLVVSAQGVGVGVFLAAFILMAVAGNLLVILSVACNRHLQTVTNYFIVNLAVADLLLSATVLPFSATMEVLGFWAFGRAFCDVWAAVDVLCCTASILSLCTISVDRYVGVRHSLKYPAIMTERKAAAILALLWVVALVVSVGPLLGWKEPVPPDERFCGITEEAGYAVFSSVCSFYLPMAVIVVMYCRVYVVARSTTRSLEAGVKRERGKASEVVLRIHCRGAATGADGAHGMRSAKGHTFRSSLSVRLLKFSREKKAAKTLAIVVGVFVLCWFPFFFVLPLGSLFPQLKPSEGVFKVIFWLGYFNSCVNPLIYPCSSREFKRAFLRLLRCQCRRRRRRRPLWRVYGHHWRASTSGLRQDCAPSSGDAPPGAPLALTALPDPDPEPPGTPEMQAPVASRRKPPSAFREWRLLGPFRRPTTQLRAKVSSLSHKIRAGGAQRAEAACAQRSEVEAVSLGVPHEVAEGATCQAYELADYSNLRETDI
- TEST NAME: Measurement of α1D receptor binding inhibitory activity ([3H]prazosin binding to membrane fraction of CHO-K1 cells expressing the receptor)
- PARTICULARS: compound at 1 μM; [3H] prazosin 2.5 nM; membrane fraction 20 μg/well; read-out: binding inhibitory rate (%) (α1D receptor binding inhibitory rate at 1 μM)
Structures can show the parent of a compound that is named as a salt.
MEASURED QUANTITY: inhibition at 1 µM (%)
Numbers only, in %.

MOLECULE | MEASURE UNIT | inhibition at 1 µM
N=c1c(C(N)=O)cc(Cl)cn1Cc1ccc(Cl)c(Cl)c1 [Example 20] | % | 100
N=c1c(C(N)=O)cc(Cl)cn1[C@@H]1CCc2ccccc21 [Example 169, hydrochloride] | % | 100
N=c1c(C(N)=O)cc(Cl)cn1C1CCc2ccccc21 (centres unmarked) [Example 32] | % | 93.9
C[C@H](c1ccccc1)n1cc(Cl)cc(C(N)=O)c1=N [Example 168, hydrochloride] | % | 94.7

Here is another molecule to look at.
Entry N=c1c(C(N)=O)cc(Cl)cn1CC1CCCCC1 [Example 26] ; inhibition at 1 µM = 75.7
